tested on: Klebsiella oxytoca; test: Antibacterial activity against Klebsiella oxytoca obtained from complicated skin and skin structure infections by agar dilution method; format: functional
Answer each item with its documented MIC90.
Use µg/mL as the unit, but write only the number.

Fill blank: measured MIC90 of the compound NCC[C@H](O)C(=O)N[C@@H]1C[C@H](N)[C@@H](O[C@H]2O[C@H](CN)[C@@H](O)[C@H](O)[C@H]2O)[C@H](O)[C@H]1O[C@H]1O[C@H](CO)[C@@H](O)[C@H](N)[C@H]1O [AMIKACIN] is ____.
8

Fill blank: measured MIC90 of the compound C[C@H]1COc2c(N3CCN(C)CC3)c(F)cc3c(=O)c(C(=O)O)cn1c23.C[C@H]1COc2c(N3CCN(C)CC3)c(F)cc3c(=O)c(C(=O)O)cn1c23.O [LEVOFLOXACIN] is ____.
8
